Documented molar heat capacity at constant pressure across a set of compounds
Experiment: molar heat capacity at constant pressure
Details: 343.15 K; 101.3 kPa; Liquid; Small sample (50 mg) DSC
Report the value in J/K/mol with no unit label.

Use the examples below as a reference point.
[[record]]
compound = "O"
assay_readout = "molar heat capacity at constant pressure"
value_observed = 75

[[record]]
compound = "CCn1cc[n+](C)c1.O=C([O-])C(F)(F)F [1-ethyl-3-methylimidazolium trifluoroacetate]"
assay_readout = "molar heat capacity at constant pressure"
value_observed = 337

[[record]]
compound = "CCn1cc[n+](C)c1.O=S(=O)([O-])C(F)(F)F [1-ethyl-3-methylimidazolium trifluoromethanesulfonate]"
assay_readout = "molar heat capacity at constant pressure"
value_observed = 384


Attention now shifts to the item below.
Look up molar heat capacity at constant pressure for this compound: CCOS(=O)(=O)[O-].CCn1cc[n+](C)c1 [1-ethyl-3-methylimidazolium ethyl sulfate]
403
